Tested on: CCRF-CEM (T-Lymphoblastic Leukemia)
Experiment: combination Emax (second highest fraction inhibited in the dose matrix, 72 h); higher = more inhibition; extreme values may be limits of the assay
assay-endpoint: combination Emax

{"compound": "CN(CCO)CC[C@H](CSc1ccccc1)Nc1ccc(S(=O)(=O)NC(=O)c2ccc(N3CCC([C@@H](O)c4ccccc4-c4ccc(Cl)cc4)CC3)cc2)cc1S(=O)(=O)C(F)(F)F [AZD4320] + C1CN(CCC1(C(=O)N[C@@H](CCO)C2=CC=C(C=C2)Cl)N)C3=NC=NC4=C3C=CN4 [Capivasertib] (first compound max 1 µM, 7x7, partner max 3 µM)", "assay-endpoint": "combination Emax", "numeric-value": 1}
{"compound": "Cc1c2c(nn1C)CSCc1cc(n(C)n1)CSc1cc(c3ccccc3c1)OCCCc1c(C(=O)O)n(C)c3c-2c(Cl)ccc13 [AZD5991] + Nc1ccn([C@@H]2O[C@H](CO)[C@@H](O)C2(F)F)c(=O)n1 [Gemcitabine] (first compound max 1 µM, 7x7, partner max 0.3 µM)", "assay-endpoint": "combination Emax", "numeric-value": 0.987}
{"compound": "CN(C)CCCOc1ccc(-c2ccc3ncc4c(c3c2)n(C2CCOCC2)c(=O)n4C)cn1 [AZD0156] + C=CCn1c(=O)c2cnc(Nc3ccc(N4CCN(C)CC4)cc3)nc2n1-c1cccc(C(C)(C)O)n1 [AZD1775] (first compound max 1 µM, partner max 1 µM)", "assay-endpoint": "combination Emax", "numeric-value": 1}
{"compound": "CCc1c2c(nc3ccc(O)cc13)-c1cc3c(c(=O)n1C2)COC(=O)[C@]3(O)CC [SN-38] + O=C(c1cc(Cc2n[nH]c(=O)c3ccccc23)ccc1F)N1CCN(C(=O)C2CC2)CC1 [Olaparib] (first compound max 0.3 µM, 7x7, partner max 10 µM)", "assay-endpoint": "combination Emax", "numeric-value": 1}
{"compound": "Cc1nc(Nc2ncc(C(=O)Nc3c(C)cccc3Cl)s2)cc(N2CCN(CCO)CC2)n1 [Dasatinib] + CC(=O)Nc1cccc(-n2c(=O)n(C3CC3)c(=O)c3c(Nc4ccc(I)cc4F)n(C)c(=O)c(C)c32)c1 [Trametinib] (first compound max 2 µM, 7x7, partner max 1 µM)", "assay-endpoint": "combination Emax", "numeric-value": 0.149}
{"compound": "COc1nnc2ccc(N3CCC(c4ccc(OCCN5CCN(C)C(=O)[C@H]5C)cc4)CC3)nn12 [AZD5153] + C[C@@H]1COCCN1C2=NC(=NC(=C2)C3(CC3)[S@](=N)(=O)C)C4=C5C=CNC5=NC=C4 [AZD6738] (first compound max 1 µM, 7x7, partner max 10 µM)", "assay-endpoint": "combination Emax", "numeric-value": 0.993}
{"compound": "CCc1c2c(nc3ccc(O)cc13)-c1cc3c(c(=O)n1C2)COC(=O)[C@]3(O)CC [SN-38] + CN(C)CCCOc1ccc(-c2ccc3ncc4c(c3c2)n(C2CCOCC2)c(=O)n4C)cn1 [AZD0156] (first compound max 0.3 µM, 7x7, partner max 1 µM)", "assay-endpoint": "combination Emax", "numeric-value": 1}
{"compound": "CN(CCO)CC[C@H](CSc1ccccc1)Nc1ccc(S(=O)(=O)NC(=O)c2ccc(N3CCC([C@@H](O)c4ccccc4-c4ccc(Cl)cc4)CC3)cc2)cc1S(=O)(=O)C(F)(F)F [AZD4320] + CCN(CCO)CCCOc1ccc2c(Nc3cc(CC(=O)Nc4cccc(F)c4)[nH]n3)ncnc2c1 [AZD2811] (first compound max 1 µM, 7x7, partner max 1 µM)", "assay-endpoint": "combination Emax", "numeric-value": 1}
{"compound": "C[C@@H](Nc1cc(F)cc(F)c1)c1cc(C(=O)N(C)C)cc2c(=O)cc(N3CCOCC3)oc12 [AZD8186] + C1CN(CCC1(C(=O)N[C@@H](CCO)C2=CC=C(C=C2)Cl)N)C3=NC=NC4=C3C=CN4 [AZD5363] (first compound max 10 µM, 7x7, partner max 10 µM)", "assay-endpoint": "combination Emax", "numeric-value": 0.411}
{"compound": "C=CCn1c(=O)c2cnc(Nc3ccc(N4CCN(C)CC4)cc3)nc2n1-c1cccc(C(C)(C)O)n1 [AZD1775] + C[C@@H]1COCCN1C2=NC(=NC(=C2)C3(CC3)[S@](=N)(=O)C)C4=C5C=CNC5=NC=C4 [AZD6738] (first compound max 1 µM, partner max 10 µM)", "assay-endpoint": "combination Emax", "numeric-value": 1}
{"compound": "CN(CCO)CC[C@H](CSc1ccccc1)Nc1ccc(S(=O)(=O)NC(=O)c2ccc(N3CCC([C@@H](O)c4ccccc4-c4ccc(Cl)cc4)CC3)cc2)cc1S(=O)(=O)C(F)(F)F [AZD4320] + Cn1cnc2c(F)c(Nc3ccc(Br)cc3Cl)c(C(=O)NOCCO)cc21 [Selumetinib] (first compound max 1 µM, 7x7, partner max 3 µM)", "assay-endpoint": "combination Emax", "numeric-value": 0.993}
{"compound": "C[C@@H]1COCCN1c1cc(C2([S@](C)(=N)=O)CC2)nc(-c2ccnc3[nH]ccc23)n1 [AZD6738] + Nc1ccn([C@@H]2O[C@H](CO)[C@@H](O)C2(F)F)c(=O)n1 [Gemcitabine] (first compound max 10 µM, 7x7, partner max 0.3 µM)", "assay-endpoint": "combination Emax", "numeric-value": 1}
{"compound": "Cc1c2c(nn1C)CSCc1cc(n(C)n1)CSc1cc(c3ccccc3c1)OCCCc1c(C(=O)O)n(C)c3c-2c(Cl)ccc13 [AZD5991] + Cc1cc2ncnn2cc1Nc1ncc2c(n1)n(C1CCOCC1)c(=O)n2C [AZD7648] (first compound max 1 µM, 7x7, partner max 10 µM)", "assay-endpoint": "combination Emax", "numeric-value": 0.52}

----------
Test system: TCCSUP (Bladder Carcinoma)
Assay: combination Emax (second highest fraction inhibited in the dose matrix, 72 h); higher = more inhibition; extreme values may be limits of the assay
assay-endpoint: combination Emax

{"compound": "Cc1c2c(nn1C)CSCc1cc(n(C)n1)CSc1cc(c3ccccc3c1)OCCCc1c(C(=O)O)n(C)c3c-2c(Cl)ccc13 [AZD5991] + CC1(C)CCC(CN2CCN(c3ccc(C(=O)NS(=O)(=O)c4ccc(NCC5CCOCC5)c([N+](=O)[O-])c4)c(Oc4cnc5[nH]ccc5c4)c3)CC2)=C(c2ccc(Cl)cc2)C1 [Venetoclax] (first compound max 1 µM, 7x7, partner max 1 µM)", "test-system": "TCCSUP (Bladder Carcinoma)", "numeric-value": 0.157}
{"compound": "COc1nnc2ccc(N3CCC(c4ccc(OCCN5CCN(C)C(=O)[C@H]5C)cc4)CC3)nn12 [AZD5153] + C[C@@H]1COCCN1C2=NC(=NC(=C2)C3(CC3)[S@](=N)(=O)C)C4=C5C=CNC5=NC=C4 [AZD6738] (first compound max 1 µM, 7x7, partner max 10 µM)", "test-system": "TCCSUP (Bladder Carcinoma)", "numeric-value": 0.566}
{"compound": "CC1(C)CCC(CN2CCN(c3ccc(C(=O)NS(=O)(=O)c4ccc(NCC5CCOCC5)c([N+](=O)[O-])c4)c(Oc4cnc5[nH]ccc5c4)c3)CC2)=C(c2ccc(Cl)cc2)C1 [Venetoclax] + CCN(CCO)CCCOc1ccc2c(Nc3cc(CC(=O)Nc4cccc(F)c4)[nH]n3)ncnc2c1 [AZD2811] (first compound max 1 µM, 7x7, partner max 1 µM)", "test-system": "TCCSUP (Bladder Carcinoma)", "numeric-value": 0.311}

----------
Tested on: KELLY (Neuroblastoma)
Assay: combination Emax (second highest fraction inhibited in the dose matrix, 72 h); higher = more inhibition; extreme values may be limits of the assay
Let's look at some compounds and their measured combination Emax.

{"compound": "Cc1c2c(nn1C)CSCc1cc(n(C)n1)CSc1cc(c3ccccc3c1)OCCCc1c(C(=O)O)n(C)c3c-2c(Cl)ccc13 [AZD5991] + CCN(CCO)CCCOc1ccc2c(Nc3cc(CC(=O)Nc4cccc(F)c4)[nH]n3)ncnc2c1 [AZD2811] (first compound max 1 µM, 7x7, partner max 1 µM)", "combination Emax": 0.896}
{"compound": "N#Cc1cnc(Nc2cc(NC[C@H]3CNCCO3)c(C(F)(F)F)cn2)cn1 [SRA737] + Nc1ccn([C@@H]2O[C@H](CO)[C@@H](O)C2(F)F)c(=O)n1 [Gemcitabine] (first compound max 10 µM, 7x7, partner max 0.3 µM)", "combination Emax": 1}
{"compound": "C[C@@H](c1ccc2nccn2c1)n1nnc2ncc(-c3cnn(C)c3)nc21 [Savolitinib] + CC1(C)CCC(CN2CCN(c3ccc(C(=O)NS(=O)(=O)c4ccc(NCC5CCOCC5)c([N+](=O)[O-])c4)c(Oc4cnc5[nH]ccc5c4)c3)CC2)=C(c2ccc(Cl)cc2)C1 [Venetoclax] (first compound max 1 µM, 7x7, partner max 1 µM)", "combination Emax": 0.357}

----------
System: TCCSUP (Bladder Carcinoma)
Assay: combination Emax (second highest fraction inhibited in the dose matrix, 72 h); higher = more inhibition; extreme values may be limits of the assay

{"compound": "Cc1nc(Nc2ncc(C(=O)Nc3c(C)cccc3Cl)s2)cc(N2CCN(CCO)CC2)n1 [Dasatinib] + CC(=O)Nc1cccc(-n2c(=O)n(C3CC3)c(=O)c3c(Nc4ccc(I)cc4F)n(C)c(=O)c(C)c32)c1 [Trametinib] (first compound max 2 µM, 7x7, partner max 1 µM)", "combination Emax": 0.266}
{"compound": "CC(=O)c1c(C)c2cnc(Nc3ccc(N4CCNCC4)cn3)nc2n(C2CCCC2)c1=O [Palbociclib] + CC1(C)CCC(CN2CCN(c3ccc(C(=O)NS(=O)(=O)c4ccc(NCC5CCOCC5)c([N+](=O)[O-])c4)c(Oc4cnc5[nH]ccc5c4)c3)CC2)=C(c2ccc(Cl)cc2)C1 [Venetoclax] (first compound max 10 µM, 7x7, partner max 1 µM)", "combination Emax": 0.152}
{"compound": "Cc1cc2ncnn2cc1Nc1ncc2c(n1)n(C1CCOCC1)c(=O)n2C [AZD7648] + C[C@@H]1COCCN1C2=NC(=NC(=C2)C3(CC3)[S@](=N)(=O)C)C4=C5C=CNC5=NC=C4 [AZD6738] (first compound max 10 µM, 7x7, partner max 10 µM)", "combination Emax": 0.569}
{"compound": "CN(CCO)CC[C@H](CSc1ccccc1)Nc1ccc(S(=O)(=O)NC(=O)c2ccc(N3CCC([C@@H](O)c4ccccc4-c4ccc(Cl)cc4)CC3)cc2)cc1S(=O)(=O)C(F)(F)F [AZD4320] + C1CN(CCC1(C(=O)N[C@@H](CCO)C2=CC=C(C=C2)Cl)N)C3=NC=NC4=C3C=CN4 [Capivasertib] (first compound max 1 µM, 7x7, partner max 3 µM)", "combination Emax": 0.168}
{"compound": "COc1cc2c(cc1OCCCCCOc1cc3c(cc1OC)C(=O)N1C=C(C)C[C@H]1C=N3)N=C[C@@H]1CC(C)=CN1C2=O [SG3199] + O=C(c1cc(Cc2n[nH]c(=O)c3ccccc23)ccc1F)N1CCN(C(=O)C2CC2)CC1 [Olaparib] (first compound max 0.001 µM, 7x7, partner max 10 µM)", "combination Emax": 0.162}
{"compound": "CC1(C)CCC(CN2CCN(c3ccc(C(=O)NS(=O)(=O)c4ccc(NCC5CCOCC5)c([N+](=O)[O-])c4)c(Oc4cnc5[nH]ccc5c4)c3)CC2)=C(c2ccc(Cl)cc2)C1 [Venetoclax] + CN(C)CCCOc1ccc(-c2ccc3ncc4c(c3c2)n(C2CCOCC2)c(=O)n4C)cn1 [AZD0156] (first compound max 1 µM, 7x7, partner max 1 µM)", "combination Emax": 0.189}
